molecular target: GFRα1-RET (Homo sapiens, UniProt P56159); assay: Elk1 reporter-gene (luciferase) assay in cells expressing GFRα1-RET; conditions: MG87 murine fibroblasts stably transfected with PathDetect Elk-1, GFRα1 and RET, 6 concentrations, agonist/activator activity
Sequence (P56159 25-429 limits assumed): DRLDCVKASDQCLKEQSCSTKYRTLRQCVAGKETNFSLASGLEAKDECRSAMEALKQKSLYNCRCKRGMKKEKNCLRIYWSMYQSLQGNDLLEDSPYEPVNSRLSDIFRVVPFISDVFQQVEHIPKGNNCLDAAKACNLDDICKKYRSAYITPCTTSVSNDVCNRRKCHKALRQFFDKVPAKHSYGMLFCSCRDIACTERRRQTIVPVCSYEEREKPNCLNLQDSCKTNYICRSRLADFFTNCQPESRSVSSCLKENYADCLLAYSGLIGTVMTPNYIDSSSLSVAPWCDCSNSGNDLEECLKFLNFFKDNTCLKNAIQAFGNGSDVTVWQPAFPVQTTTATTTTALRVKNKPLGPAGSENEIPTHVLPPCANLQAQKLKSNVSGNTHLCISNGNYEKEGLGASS
Below, each entry is listed with its recorded EC50.
ENDPOINT_LABEL: EC50

>>> df
                                   molecule                           subject_of_test    endpoint_value
0  COc1ccc(S(=O)(=O)N2CCN(CC(O)c3ccc(F)cc3)CC2)cc1N1C2CCC1CN(C(=O)c1ccc(F)cc1Cl)C2 (racemic) [compound 128]  GFRα1-RET (Homo sapiens, UniProt P56159)         < 1000 nM
1  CC(C)(C)NS(=O)(=O)c1cc(Cl)c(OCCO)c(N2[C@@H]3CC[C@H]2CN(C(=O)c2ccc(F)cc2Cl)C3)c1 [compound 112]  GFRα1-RET (Homo sapiens, UniProt P56159)         < 1000 nM
2  CN(CC1CC1)S(=O)(=O)c1cc2c(c(N3[C@@H]4CC[C@H]3CN(C(=O)c3ccc(F)cc3Cl)C4)c1)OCC2 [compound 058]  GFRα1-RET (Homo sapiens, UniProt P56159)  1000 to 10000 nM
3  Cc1cc(S(=O)(=O)N(C)CC2CC2)cc(N2[C@@H]3CC[C@H]2CN(C(=O)c2ccc(F)cc2Cl)C3)c1O [compound 092]  GFRα1-RET (Homo sapiens, UniProt P56159)         < 1000 nM
